# Test system: johnsongrass (Sorghum halepense)
# Test Protocol: Test C preemergence, plant response rating
# Assay type: in vivo
# Experimental Setup: 31 g ai/ha, scale 0 to 100

| Structure Notation | Plant response rating, Johnsongrass |
| --- | --- |
| N#Cc1cccc(Oc2ncc(Cl)cn2)c1C(=O)OCCC(F)(F)F | 0 |
| O=C(CCCC(F)(F)F)c1c(Cl)cccc1Oc1ncc(Cl)cn1 | 25 |
| CCCCC(=O)c1c(Oc2ncc(Cl)cn2)cccc1C(F)(F)F | 10 |
| O=C(OCCC(F)(F)F)c1c(Br)cccc1Oc1ncc(Cl)cn1 | 50 |
| O=C(CCCC(F)(F)F)c1c(Oc2ncc(Cl)cn2)cccc1C(F)(F)F | 5 |

---

# System: oat, wild (wild oat Avena fatua)
# Test Protocol: Test C postemergence, plant response rating
# Type: in vivo
# Experimental Setup: 16 g ai/ha, scale of 0 to 100
Reported Plant response rating, Oat, Wild values follow for various molecules

| Structure Notation | Plant response rating, Oat, Wild |
| --- | --- |
| O=C(CCCC(F)(F)F)c1c(Oc2ncc(Cl)cn2)cccc1C(F)(F)F | 5 |
| O=C(CCCC(F)(F)F)c1c(Cl)cccc1Oc1ncc(Cl)cn1 | 10 |
| CCCC(=O)c1c(Oc2ncc(Cl)cn2)cccc1C(F)(F)F | 5 |
| CCCCC(=O)c1c(Br)cccc1Oc1ncc(Cl)cn1 | 15 |

---

Reported Plant response rating, Waterhemp values follow for various compounds
# Test system: waterhemp (common waterhemp, Amaranthus rudis)
# Test Protocol: Test C postemergence, plant response rating
# Format: in vivo
# Experimental Setup: 16 g ai/ha, scale of 0 to 100
Measured Metric: Plant response rating, Waterhemp

| Structure Notation | Target System | Measured Metric | Recorded Number |
| --- | --- | --- | --- |
| FC(F)(F)CCCc1c(Br)cccc1Oc1ncc(Cl)cn1 | waterhemp (common waterhemp, Amaranthus rudis) | Plant response rating, Waterhemp | 70 |
| O=C(CCC(F)(F)F)c1c(Cl)cccc1Oc1ncc(Cl)cn1 | waterhemp (common waterhemp, Amaranthus rudis) | Plant response rating, Waterhemp | 95 |
| CCCCC(=O)c1c(Br)cccc1Oc1ncc(Cl)cn1 | waterhemp (common waterhemp, Amaranthus rudis) | Plant response rating, Waterhemp | 95 |
| O=C(CCCC(F)(F)F)c1c(Br)cccc1Oc1ncc(Cl)cn1 | waterhemp (common waterhemp, Amaranthus rudis) | Plant response rating, Waterhemp | 95 |
| CCCC(=O)c1c(Oc2ncc(Cl)cn2)cccc1C(F)(F)F | waterhemp (common waterhemp, Amaranthus rudis) | Plant response rating, Waterhemp | 70 |

---

# Tested on: Italian ryegrass (Lolium multiflorum)
# Test Protocol: Test A preemergence, visual injury rating
# Assay type: in vivo
# Experimental Setup: 500 g ai/ha, 0 to 100 scale (0 no effect, 100 complete control)
Reported Ryegrass, Italian plant response rating values follow for various molecules
Measured Metric: Ryegrass, Italian plant response rating

| Molecule | Measured Metric | Recorded Number |
| --- | --- | --- |
| O=C(OCC(F)(F)F)c1c(Br)cccc1Oc1ncc(Cl)cn1 | Ryegrass, Italian plant response rating | 30 |
| CC(CN(C)C(=O)c1c(Br)cccc1Oc1ncc(Cl)cn1)C(F)(F)F (stereo not shown) | Ryegrass, Italian plant response rating | 0 |
| N#Cc1cccc(Oc2ncc(Cl)cn2)c1C(=O)OCCC(F)(F)F | Ryegrass, Italian plant response rating | 0 |
| O=C(OCCCC(F)(F)F)c1c(Oc2ncc(Cl)cn2)cccc1C(F)(F)F | Ryegrass, Italian plant response rating | 30 |
